Biological target: Luciferin 4-monooxygenase (Photinus pyralis) (UniProt P08659)
Sequence (P08659 whole entry, looked up): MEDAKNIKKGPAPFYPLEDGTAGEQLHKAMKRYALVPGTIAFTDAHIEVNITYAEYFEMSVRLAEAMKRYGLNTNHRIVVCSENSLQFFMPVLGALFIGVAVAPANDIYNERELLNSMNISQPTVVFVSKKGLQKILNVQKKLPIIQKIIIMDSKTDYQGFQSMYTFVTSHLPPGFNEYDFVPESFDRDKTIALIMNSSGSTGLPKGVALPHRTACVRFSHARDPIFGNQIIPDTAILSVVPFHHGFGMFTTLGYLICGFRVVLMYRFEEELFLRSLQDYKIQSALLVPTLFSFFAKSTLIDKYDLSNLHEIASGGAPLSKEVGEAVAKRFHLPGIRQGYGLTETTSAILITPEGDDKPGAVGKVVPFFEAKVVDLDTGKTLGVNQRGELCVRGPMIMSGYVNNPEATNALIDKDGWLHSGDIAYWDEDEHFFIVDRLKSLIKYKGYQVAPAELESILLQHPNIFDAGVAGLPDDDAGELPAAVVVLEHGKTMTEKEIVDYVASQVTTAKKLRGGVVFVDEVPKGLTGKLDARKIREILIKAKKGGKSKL
Experiment: Biochemical firefly luciferase enzyme assay for NPC (AID 624030); note: nearly all actives have a fitted effect of over 70% in size
Settings: purified P. pyralis luciferase, luminescence, 5 min; series mostly up to 58.6 µM
Records with an inconclusive call do not appear. Calls of active or inactive are those of the source. Calls come from the whole dose curve; as a rule, active = well fitted inhibition curve with a large enough effect; inconclusive = small, poorly fitted or top-dose-only effect; inactive = flat fitted curve, though single readings scatter.
Labels: t = active, f = inactive

| Molecule | Group |
| --- | --- |
| O=C(OC1C[C@@H]2CC3C[C@H](C1)N2CC3=O)c1c[nH]c2ccccc12 (some centres undefined) | f |
| COc1ccc(C[C@H](C)NC[C@@H](O)c2ccc(O)c(NC=O)c2)cc1 | f |
| COC(=O)[C@@H](N)CS | f |
| C[C@]12CCC(=O)C[C@@H]1CC[C@@H]1[C@@H]2CC[C@]2(C)C=CC[C@@H]12 | f |
| CC(C)(Oc1ccc(C2CCCc3ccccc32)cc1)C(=O)O (centres undefined) | f |
| FC(F)OC(Cl)C(F)(F)F (centres undefined) | f |
| CC[C@H]1OC(=O)[C@H](C)[C@@H](O[C@H]2C[C@@](C)(OC)[C@@H](O)[C@H](C)O2)C(C)[C@@H](O[C@@H]2O[C@H](C)C[C@H](N(C)C)[C@@H]2O)[C@](C)(OC)C[C@@H](C)C(=O)[C@H](C)[C@@H](O)[C@]1(C)O (some centres undefined) | f |
| O=C(O)[C@H]1C(=CCO)O[C@H]2CC(=O)N12 | f |
| O=P(O)(O)OP(=O)(O)O | f |
| O=C(O)CCC/C=C\C[C@@H]1[C@@H](/C=C/[C@@H](O)COc2cccc(Cl)c2)[C@H](O)C[C@@H]1O | f |
| N#Cc1ccc2c(c1)N(CCCN1CCC(O)CC1)c1ccccc1S2 | f |
| C=C(C)C1CC=C(C)CC1 (centres undefined) | f |
| [O]=[Bi][O][Bi]=[O] | f |
| Cc1cccc(C)c1NC(=O)C1CCCCN1C (centres undefined) | f |
| OCc1ccccc1 | f |
| CC(=O)Nc1ccc(OC(=O)c2ccccc2O)cc1 | t |
| Nc1ccc(N=Nc2ccccc2)c(N)n1 | t |
| CCCCC[C@H](O)/C=C/[C@@H]1[C@H]2C/C(=C/CCCC(=O)O)O[C@H]2C[C@H]1O | f |
| O=C(NNCS(=O)(=O)O)c1ccncc1 | f |
| CN[C@@H]1[C@H](O[C@H]2[C@H](O[C@H]3[C@H](O)[C@@H](O)[C@H](N=C(N)N)[C@@H](O)[C@@H]3N=C(N)N)O[C@@H](C)[C@]2(O)C=O)O[C@@H](CO)[C@H](O)[C@H]1O | f |
| CN1CCc2c(c3ccccc3n2Cc2ccccc2)C1 | f |
| OCCOCCOCCO | f |
| Cn1cc(NC(=O)c2cc(NC(=O)c3cc(NC=O)cn3C)cn2C)cc1C(=O)NCCC(=N)N | f |
| C=CC(C)(O)CC/C=C(\C)CCC=C(C)C (centres undefined) | f |
| COc1cc2c(cc1OC)[C@@H](Cc1cc(OC)c(OC)c(OC)c1)[N+](C)(CCCOC(=O)CC/C=C/CCC(=O)OCCC[N+]1(C)CCc3cc(OC)c(OC)cc3[C@H]1Cc1cc(OC)c(OC)c(OC)c1)CC2 (some centres undefined) | f |
| [O]=[Bi][O]C(=O)[O][Bi]=[O] | f |
| COc1ccc(-c2noc(CC(=O)O)c2-c2ccc(OC)cc2)cc1 | f |
| C[C@]12CC[C@@H]3c4ccc(OC(=O)c5ccccc5)cc4CC[C@H]3[C@@H]1CC[C@@H]2O | f |
| CNC(=O)[C@H](Cc1c[nH]c2ccccc12)NC(=O)[C@@H](CC(=O)NO)CC(C)C | f |
| C=CC(=O)O | f |
| CCCCCc1ccc(C)cc1O | f |
| CC1CC(OC(=O)C(O)c2ccccc2)CC(C)(C)C1 (centres undefined) | f |
| O=C(O)CCC(=O)c1ccc(-c2ccccc2)cc1 | t |
| CCCCC[C@H](O)/C=C/[C@H]1[C@H](O)CC(=O)[C@@H]1C/C=C\CCCC(=O)O | f |
| O=C1CCC(c2ccccc2)(C2CCN(Cc3ccccc3)CC2)C(=O)N1 (centres undefined) | f |
| CCCc1nc(C(C)(C)O)c(C(=O)OCc2oc(=O)oc2C)n1Cc1ccc(-c2ccccc2-c2nn[nH]n2)cc1 | f |
| C=CC[N+]1([C@H]2C[C@H]3[C@@H]4CC[C@H]5C[C@H](O)[C@@H](N6CCOCC6)C[C@]5(C)[C@H]4CC[C@]3(C)[C@H]2OC(C)=O)CCCC1 | f |
| NC(N)=O | f |
| CN(CCO)CC(O)Cn1cnc2c1c(=O)n(C)c(=O)n2C (centres undefined) (tested in a mixture with another compound) | f |
| CN(C)CCOc1ccc(/C(=C(/CCCl)c2ccccc2)c2ccccc2)cc1 | f |
| Cc1ccc(C(C)(C)c2ccc(C)cc2)cc1 | f |
| CC(C)(CO)[C@@H](O)C(=O)NCCC(=O)NCCSSCCNC(=O)CCNC(=O)[C@H](O)C(C)(C)CO | f |
| CC1C(=O)CC2C3(C)CCC2(C(C)C(=O)O)C(=O)C13 (centres undefined) | f |
| CC12CCC(C1)C(C)(C)C2=O (centres undefined) | f |
